Reported inhibition is given for each of the following molecules.
Molecular target: Prothrombin (Homo sapiens) (UniProt P00734)
Test: Inhibition of thrombin (unknown origin) using Boc-Val-Pro-Arg-AMC as substrate at 25 uM after 10 mins by continuous fluorimetric assay

• CCCC[C@H](NC(=O)[C@H](CCCCN)NC(=O)[C@H](CCCNC(=N)N)NC(=O)c1ccc(/C=C2\NC(=S)N(Cc3ccccc3)C2=O)cc1)C(N)=O = 11.4%
• CCCC[C@H](NC(=O)[C@H](CCCCN)NC(=O)[C@H](CCCNC(=N)N)NC(=O)c1ccc(/C=C2\SC(=O)N(C3CCCC3)C2=O)cc1)C(N)=O = 16%

QUERY: In one line, give reported inhibition of the entry CCCC[C@H](NC(=O)[C@H](CCCCN)NC(=O)[C@H](CCCNC(=N)N)NC(=O)c1ccc(/C=C2\SC(=O)N(CC)C2=O)cc1)C(N)=O .
RESULT: 19%

QUERY: Give a short answer stating reported inhibition for CCCC[C@H](NC(=O)[C@H](CCCCN)NC(=O)[C@H](CCCNC(=N)N)NC(=O)c1ccc(/C=C2\SC(=S)N(Cc3ccccc3)C2=O)cc1)C(N)=O .
RESULT: 13.1%

QUERY: Give the reported inhibition for this molecule. CCCC[C@H](NC(=O)[C@H](CCCCN)NC(=O)[C@H](CCCNC(=N)N)NC(=O)c1ccc(/C=C2\SC(=O)N(Cc3ccc(OC)cc3)C2=O)cc1)C(N)=O
RESULT: 12.3%

Sourced from ChEMBL document CHEMBL2440094
